Test system: HeLa Cells
Experimental protocol: Transfection of HeLa cells with DOTMA/SEQ ID NO: 72/peptide compared with Lipofectamine 2000
Type: cell-based
Condition info: 0.2 μL of DOTMA/SEQ ID NO: 72/Peptide in well of a 96 well plate; fusogenic peptide 0.1 mg/mL
Quantity name: RF (Relative Fluorescence), DOTMA/SEQ ID NO: 72/Peptide, HeLa Cells
Give bare numbers.

452 (CNYYSNSYSFWLASLNPER; Peptidic transfection agent) [compound 452] : 12671

Parameters: items (list). Returns: RF (Relative Fluorescence), DOTMA/SEQ ID NO: 72/Peptide, HeLa Cells for each item.
1. 323 (HQQDLGTAGSCLRKFSTMFLF; Peptidic transfection agent) [compound 323]
2. 218 (SPPRRARVT; Peptidic transfection agent) [compound 218]
3. 341 (LRAHAVDVNG; Peptidic transfection agent) [compound 341]

Reply text:
1: 16620; 2: 13103; 3: 7469

Parameters: items (list). Returns: RF (Relative Fluorescence), DOTMA/SEQ ID NO: 72/Peptide, HeLa Cells for each item.
1. 357 (SETTVKYIFRLHE; Peptidic transfection agent) [compound 357]
2. 328 (NWRHISYITRFG; Peptidic transfection agent) [compound 328]
3. 326 (RLVSYSGVLFFLK; Peptidic transfection agent) [compound 326]

Reply text:
1. 11798
2. 12229
3. 9487

Inquiry: Tell me RF (Relative Fluorescence), DOTMA/SEQ ID NO: 72/Peptide, HeLa Cells of 379 (TAGSCLRKF; Peptidic transfection agent) [compound 379] when tested on HeLa Cells.
Reply text: 47049
